Tgt: Fes (UniProt P07332)
Sequence (P07332 whole entry, looked up): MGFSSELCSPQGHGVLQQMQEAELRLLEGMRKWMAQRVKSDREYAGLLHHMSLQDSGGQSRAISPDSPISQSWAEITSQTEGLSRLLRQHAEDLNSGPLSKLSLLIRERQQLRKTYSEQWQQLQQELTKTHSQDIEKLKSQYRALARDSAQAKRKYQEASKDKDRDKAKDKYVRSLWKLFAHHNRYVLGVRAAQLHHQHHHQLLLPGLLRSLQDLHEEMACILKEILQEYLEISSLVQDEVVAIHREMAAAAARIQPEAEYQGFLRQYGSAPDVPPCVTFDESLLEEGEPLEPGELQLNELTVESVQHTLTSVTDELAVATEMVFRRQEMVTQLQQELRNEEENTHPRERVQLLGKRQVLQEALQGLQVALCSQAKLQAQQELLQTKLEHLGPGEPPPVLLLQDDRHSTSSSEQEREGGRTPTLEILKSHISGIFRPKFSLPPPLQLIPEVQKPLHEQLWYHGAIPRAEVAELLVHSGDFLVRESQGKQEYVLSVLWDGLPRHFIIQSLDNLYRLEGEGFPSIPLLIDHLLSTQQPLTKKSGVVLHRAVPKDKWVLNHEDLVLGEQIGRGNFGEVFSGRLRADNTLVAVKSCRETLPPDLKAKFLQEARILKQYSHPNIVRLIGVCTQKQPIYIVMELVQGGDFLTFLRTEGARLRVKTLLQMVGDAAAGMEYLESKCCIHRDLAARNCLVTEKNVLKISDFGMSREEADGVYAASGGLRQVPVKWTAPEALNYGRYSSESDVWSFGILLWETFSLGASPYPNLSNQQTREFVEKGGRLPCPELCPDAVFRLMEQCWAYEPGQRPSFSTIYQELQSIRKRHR
Assay Comment: phosphorylation enrichment, bacterial display (enrichment ratio); higher = better substrate or ligand; peptides without Tyr show the background
Measure: phosphorylation enrichment

1) EREYKYGAHNY [OAT_Y50] :: 0.558
2) SEPDLYFDPRG [PKP1_Y160_C161Y_YF] :: 1.14

// recorded phosphorylation enrichment for GLVFLYMEKNQ [PRELP_Y156] : 1.18

// recorded phosphorylation enrichment for SVGGLYRDMGA [CBX8_Y321_G317V] : 0.791

// recorded phosphorylation enrichment for QCTSAYPLQPE [NANS_Y188] : 1.46

* * *

System: AncSZ
Assay Comment: phosphorylation enrichment, bacterial display (enrichment ratio); higher = better substrate or ligand; peptides without Tyr show the background
Measure: phosphorylation enrichment
Just the number, please, no unit after it.

Use these answered entries as a reference point.
1. VEYAKYGSLQG [RET_Y809_R813Q] :: 0.614
2. VDSNPYSRLVA [UBA5_Y53_M57V] :: 0.743
3. AIQDAYMHITS [ADCY10_Y318] :: 0.671
4. RRIHSYRGHLW [VHL_Y112] :: 2.9

Entry FSGIFYKPESL [L2HGDH_Y103_H98Y_YF] : phosphorylation enrichment on AncSZ = 0.968

Entry RQQEVYLLYKQ [RARRES1_Y159_D158V] : phosphorylation enrichment on AncSZ = 1.5

* * *

Tgt: c-Src SH2
Assay Comment: SH2 binding enrichment of the phosphorylated peptide, bacterial display (enrichment ratio); higher = better substrate or ligand; peptides without Tyr show the background
The threshold is inclusive: SH2 binding enrichment of exactly 0.5 counts as t; values below receive f.

Consider the worked cases shown below.
1. KVALVYGQMNE [ATP5F1B_Y269] :: t
2. RRIHSYRGHVW [VHL_Y112_L116V] :: f
3. SEDANYMRVSC [TTC3_Y1288_K1289M] :: t
4. DHAGTYGLGDR [MAPT_Y18] :: t
5. IFHLSYHHNCE [PDE6B_Y227_L228H_YF] :: t

Input: # check: SH2 binding enrichment of SDYSSYARTSI [TERT_Y949] is greater than or equal to 0.5
Output: t

Input: # check: SH2 binding enrichment of NGQAVYAACQT [XDH_Y1092] is greater than or equal to 0.5
Output: f

Input: # check: SH2 binding enrichment of AKQVGCENAGT [PC_Y304_Y304C] is greater than or equal to 0.5
Output: f

Input: # check: SH2 binding enrichment of ALAHKYDGGGG [HBB_Y146_H147D] is greater than or equal to 0.5
Output: f

Input: # check: SH2 binding enrichment of NTGVYYDLYGG [PTPN11_Y63_D61V] is greater than or equal to 0.5
Output: t

Input: # check: SH2 binding enrichment of NDDDVYLSLEE [VAV2_Y142_R143L] is greater than or equal to 0.5
Output: f

Input: # check: SH2 binding enrichment of QCTSDYPEHVC [SART3_Y541] is greater than or equal to 0.5
Output: t

Input: # check: SH2 binding enrichment of NTVLGYFIGCI [GARS1_Y408_R412C] is greater than or equal to 0.5
Output: f

Input: # check: SH2 binding enrichment of EVDELYREAPI [MYL12B_Y143] is greater than or equal to 0.5
Output: f

Input: # check: SH2 binding enrichment of LKEIHYPPYTD [ALDH3B2_Y362] is greater than or equal to 0.5
Output: t

Input: # check: SH2 binding enrichment of QAPPIYLDVLG [NTRK1_Y791_V790I] is greater than or equal to 0.5
Output: f

Input: # check: SH2 binding enrichment of AFGGGYGGVLT [KRT19_Y65_YF] is greater than or equal to 0.5
Output: f

Input: # check: SH2 binding enrichment of MIRSAYALRGL [CPS1_Y590_G593R] is greater than or equal to 0.5
Output: f

Input: # check: SH2 binding enrichment of RKQQLYIAMEE [CCDC39_Y593_T594I] is greater than or equal to 0.5
Output: t

Input: # check: SH2 binding enrichment of SDFSRYARTSI [TERT_Y949_S948R_YF] is greater than or equal to 0.5
Output: f

Input: # check: SH2 binding enrichment of IGMIIYFARKA [VCAM1_Y718] is greater than or equal to 0.5
Output: t

Input: # check: SH2 binding enrichment of IRFPPYTDWNQ [ALDH3B2_Y365_H361R_YF] is greater than or equal to 0.5
Output: t

Input: # check: SH2 binding enrichment of PPAPRCHHSAV [LZTR1_Y119_Y119C] is greater than or equal to 0.5
Output: t

Input: # check: SH2 binding enrichment of GPKSTYISSAG [GOLGA5_Y62_A67G] is greater than or equal to 0.5
Output: f

Input: # check: SH2 binding enrichment of CGSLLYGLVHQ [PRKCG_Y122] is greater than or equal to 0.5
Output: t
